ASSAY_CONTEXT: in water, 298.15 K
EXPERIMENTAL_ENDPOINT: solubility (mole fraction)
Reply with just the number.

See these solved cases before continuing.
- MOLECULAR_STRING: "Nc1ccc(S(=O)(=O)Nc2ncccn2)cc1"
  solubility (mole fraction): "4.82e-06"
- MOLECULAR_STRING: "COc1cnc(NS(=O)(=O)c2ccc(N)cc2)nc1"
  solubility (mole fraction): "5.52e-06"
- MOLECULAR_STRING: "COc1cc(NS(=O)(=O)c2ccc(N)cc2)ncn1"
  solubility (mole fraction): "3.88e-06"
- MOLECULAR_STRING: "Nc1ccc(S(=O)(=O)[N-]c2cncc(Cl)n2)cc1.[Na+]"
  solubility (mole fraction): "1.12e-05"

So for `COc1cc(NS(=O)(=O)c2ccc(N)cc2)nc(OC)n1` , the logged solubility (mole fraction) turned out to be 3.07e-06
